target: BCL6 (Homo sapiens (Human), UniProt P41182); experiment: Immunofluorescence high content imaging of BCL6 degradation in T47D cells; assay type: cell-based
Reported IC50 values follow for various compounds
reported-property: IC50

INSERT INTO measurements (compound, reported_property, reported_measurement) VALUES
  ('Cc1nnc(-c2cc3cc(Nc4nc(N5CCN(C(C)(C)C6CCN(c7ccc8c(c7)C(=O)N(C7CCC(=O)NC7=O)C8=O)CC6)CC5)ncc4Cl)ccc3n(C)c2=O)o1 (stereo not drawn)', 'IC50', '10 to 50 nM'),
  ('CNC(=O)COc1cc2cc(Nc3nc(N4CCC(CN5CC6(C5)CN(c5ccc7c(c5)C(=O)N(C5CCC(=O)NC5=O)C7=O)C6)CC4)ncc3Cl)ccc2n(C)c1=O (stereo not drawn)', 'IC50', '≥ 100 nM'),
  ('CNC(=O)COc1cc2cc(Nc3nc(N4CCN(CC5CCN(c6cccc(C(=O)NC7CCC(=O)NC7=O)c6F)CC5)CC4)ncc3Cl)ccc2n(C(C)C)c1=O (stereo not drawn)', 'IC50', '< 10 nM');

Where do the numbers come from? From patent US12310975B2.
